tested on: SK-OV-3; test: Growth inhibition of human SKOV3 cells at 10 uM after 48 hrs by coulter counter method; format: functional; conditions: SK-OV-3, 48 h, read-out: GI
QUANTITY_KIND: inhibition of growth at 10 µM (%)
The reply should contain only the number, in %.

Input COc1ccc(C(=O)CSc2nc3ccccc3c(=O)n2-c2ccc(Cl)cc2)cc1 , output reported inhibition of growth at 10 µM.
44.7

Input O=C(CSc1nc2ccccc2c(=O)n1-c1ccc(Cl)cc1)c1ccc(Cl)cc1 , output reported inhibition of growth at 10 µM.
30

Input COc1ccc(-n2c(SCC(=O)c3ccc(Cl)cc3)nc3ccccc3c2=O)cc1 , output reported inhibition of growth at 10 µM.
31.9

Input O=c1c2ccccc2nc(Nc2nnc(-c3ccc(Cl)cc3)s2)n1-c1ccccc1 , output reported inhibition of growth at 10 µM.
30

Input CCn1c(SC)nc2ccccc2c1=O , output reported inhibition of growth at 10 µM.
30

Input NS(=O)(=O)c1ccc(Nc2nc3ccccc3c(=O)n2-c2ccc(Cl)cc2)cc1 , output reported inhibition of growth at 10 µM.
30

Input CCn1c(-n2ccnc2)nc2ccccc2c1=O , output reported inhibition of growth at 10 µM.
30

Input CSc1nc2ccccc2c(=O)n1-c1ccc(Cl)cc1 , output reported inhibition of growth at 10 µM.
30

Input COc1ccc(-n2c(SC)nc3ccccc3c2=O)cc1 , output reported inhibition of growth at 10 µM.
30

Input O=C1Nc2ccc(C(=O)Nc3ccccn3)cc2C(c2ccc(Cl)cc2)N1 (stereo unspecified) , output reported inhibition of growth at 10 µM.
30

Input COc1ccc(-n2c(Nc3ccc(S(N)(=O)=O)cc3)nc3ccccc3c2=O)cc1 , output reported inhibition of growth at 10 µM.
30
